Data origin: PubChem BioAssay AID1918937

- Tested on: 521955-158-R2-J5-PDC complex spheroid viability
- test description: Anticancer human tumor 521955-158-R2-J5-PDC patient-derived pancreatic carcinoma cell line growth inhibition
- condition notes: second compound 1 µM; first compound 0.3 µM; stronger effect = lower value
Label scheme, based on viability, T/C: Low = under 50%, Mid = from 50% up to 70%, High = 70% and over

Q: Class (by measured viability, T/C) for Nc1ncn(C2CC(O)C(CO)S2)c(=O)n1 (centres undefined) + NC1CC1c1ccc(-c2cccc(O)c2)cc1
A: High

Q: O=C(C=Cc1cccc(S(=O)(=O)Nc2ccccc2)c1)NO + NC1CC1c1ccc(-c2cccc(O)c2)cc1 ?
A: Mid

Q: Nc1ccccc1NC(=O)c1ccc(CNC(=O)OCc2cccnc2)cc1 + NC1CCC(NC2CC2c2ccccc2)CC1 ?
A: Mid

Q: COc1cc(C2c3cc4c(cc3C(OC3OC5COC(C)OC5C(O)C3O)C3COC(=O)C23)OCO4)cc(OC)c1O (centres undefined) + NC1CCC(NC2CC2c2ccccc2)CC1 ?
A: Low

Q: O=C(C=Cc1cccc(S(=O)(=O)Nc2ccccc2)c1)NO + NC1CCC(NC2CC2c2ccccc2)CC1 ?
A: Mid

Q: Nc1ccccc1NC(=O)c1ccc(CNC(=O)OCc2cccnc2)cc1 + NC1CC1c1ccc(-c2cccc(O)c2)cc1 ?
A: Mid

Q: COc1cc(C2c3cc4c(cc3C(OC3OC5COC(C)OC5C(O)C3O)C3COC(=O)C23)OCO4)cc(OC)c1O (centres undefined) + NC1CC1c1ccc(-c2cccc(O)c2)cc1 ?
A: Low

Q: CCN(c1cc(-c2ccc(CN3CCOCC3)cc2)cc(C(=O)NCc2c(C)cc(C)[nH]c2=O)c1C)C1CCOCC1 + NC1CCC(NC2CC2c2ccccc2)CC1 ?
A: High

Q: NS(=O)(=O)OCC1CC(n2ccc3c(NC4CCc5ccccc54)ncnc32)CC1O (centres undefined) + NC1CC1c1ccc(-c2cccc(O)c2)cc1 ?
A: Low

###

- System: 521955-158-R2-J5-PDC complex spheroid viability
- test description: Anticancer human tumor 521955-158-R2-J5-PDC cell line growth inhibition;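 further: spheroids exposed to agents for seven days; percent of DMSO vehicle control luminescence viability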
- condition notes: second compound 10 µM; first compound 0.01 µM; stronger effect = lower value
// classify: if (viability, T/C < 30%) class 1 else class 0

Q: Is 30% strictly greater than the molecule's reported viability, T/C? molecule: COc1cc(Nc2ncc3c(n2)-c2ccc(Cl)cc2C(c2c(F)cccc2OC)=NC3)ccc1C(=O)O + NC1CC1c1ccc(-c2cccc(O)c2)cc1
A: class 0

Q: CC1COCCN1c1cc(-c2ccnn2C)c2ccnc(-c3ccn[nH]3)c2n1 (configuration not stated) + NC1CCC(NC2CC2c2ccccc2)CC1 ?
A: class 1

Q: CC(C)CC(NC(=O)CNC(=O)c1cc(Cl)ccc1Cl)B1OC(=O)CC(CC(=O)O)(C(=O)O)O1 (configuration not stated) + NC1CCC(NC2CC2c2ccccc2)CC1 ?
A: class 1

Q: Nc1ncn(C2CC(O)C(CO)O2)c(=O)n1 (configuration not stated) + NC1CC1c1ccc(-c2cccc(O)c2)cc1 ?
A: class 0

Q: CC(C)CC(NC(=O)C(Cc1ccccc1)NC(=O)c1cnccn1)B(O)O (configuration not stated) + NC1CCC(NC2CC2c2ccccc2)CC1 ?
A: class 1

Q: CC(C)CC(NC(=O)C(Cc1ccccc1)NC(=O)c1cnccn1)B(O)O (configuration not stated) + NC1CC1c1ccc(-c2cccc(O)c2)cc1 ?
A: class 1
